Task for the reader: assign each of the following molecules its reported combination Emax.
# Tested on: A498 (Kidney Carcinoma)
# Assay Protocol: combination Emax (second highest fraction inhibited in the dose matrix, 72 h); higher = more inhibition; extreme values may be limits of the assay
Please reply with the number alone, leaving off any unit.

I have this molecule here, CC(=O)c1c(C)c2cnc(Nc3ccc(N4CCNCC4)cn3)nc2n(C2CCCC2)c1=O [Palbociclib] + Cc1c2c(nn1C)CSCc1cc(n(C)n1)CSc1cc(c3ccccc3c1)OCCCc1c(C(=O)O)n(C)c3c-2c(Cl)ccc13 [AZD5991] (first compound max 10 µM, 7x7, partner max 1 µM) , and I need its recorded combination Emax.
0.406

Entry under review: Cn1cnc2c(F)c(Nc3ccc(Br)cc3Cl)c(C(=O)NOCCO)cc21 [Selumetinib] + CCN(CCO)CCCOc1ccc2c(Nc3cc(CC(=O)Nc4cccc(F)c4)[nH]n3)ncnc2c1 [AZD2811] (first compound max 10 µM, 7x7, partner max 1 µM) . Reported combination Emax?
0.383

So what's the measured combination Emax for this one? CC1(C)CCC(CN2CCN(c3ccc(C(=O)NS(=O)(=O)c4ccc(NCC5CCOCC5)c([N+](=O)[O-])c4)c(Oc4cnc5[nH]ccc5c4)c3)CC2)=C(c2ccc(Cl)cc2)C1 [Venetoclax] + C1CN(CCC1(C(=O)N[C@@H](CCO)C2=CC=C(C=C2)Cl)N)C3=NC=NC4=C3C=CN4 [Capivasertib] (first compound max 1 µM, 7x7, partner max 3 µM)
0.537

Suppose we examine the molecule COc1cc2ncnc(Nc3ccc(F)c(Cl)c3)c2cc1OCCCN1CCOCC1 [Gefitinib] + CC(C)n1c(=O)n(C)c2cnc3cc(F)c(-c4ccc(OCCCN5CCCCC5)nc4)cc3c21 [AZD1390] (first compound max 10 µM, 7x7, partner max 0.3 µM) ; what combination Emax value has been reported?
0.298

What value of combination Emax has been reported for the following molecule? CN(CCO)CC[C@H](CSc1ccccc1)Nc1ccc(S(=O)(=O)NC(=O)c2ccc(N3CCC([C@@H](O)c4ccccc4-c4ccc(Cl)cc4)CC3)cc2)cc1S(=O)(=O)C(F)(F)F [AZD4320] + C1CN(CCC1(C(=O)N[C@@H](CCO)C2=CC=C(C=C2)Cl)N)C3=NC=NC4=C3C=CN4 [Capivasertib] (first compound max 1 µM, 7x7, partner max 3 µM)
0.57
